B1: Pistol ribozyme (parent)
chain: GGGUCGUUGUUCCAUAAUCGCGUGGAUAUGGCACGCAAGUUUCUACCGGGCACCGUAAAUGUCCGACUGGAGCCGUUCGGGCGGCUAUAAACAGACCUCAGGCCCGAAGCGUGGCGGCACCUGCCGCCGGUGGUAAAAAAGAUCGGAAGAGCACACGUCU

- Variants of: B1
- experiment: aptazyme ON/OFF ratio, guanine; higher = stronger switching; co-transcriptional cleavage with and without guanine
# maps each entry to its aptazyme ON/OFF ratio
recordedEndpoint: aptazyme ON/OFF ratio

mutant	recordedEndpoint	number
U7G U10C U11A C12G C13A	aptazyme ON/OFF ratio	1.07
U7C U8A G9U C12G C13G	aptazyme ON/OFF ratio	1.21
U7C U8C G9C U11G C13U	aptazyme ON/OFF ratio	1.1
U8A G9U U10A U11G C12G C13U	aptazyme ON/OFF ratio	1.31
U7G U8C G9U U10C C13G	aptazyme ON/OFF ratio	1.12
U7G U8G U10A C12A C13U	aptazyme ON/OFF ratio	1.33
U7C U8C U10A C12G C13U	aptazyme ON/OFF ratio	1.07
U8A G9U U10A U11A C12U C13A	aptazyme ON/OFF ratio	1.21
U7A U8A G9U C12A C13U	aptazyme ON/OFF ratio	1.52
U7C G9A U10G U11C C12A C13U	aptazyme ON/OFF ratio	1.15
U7G G9C U10G U11A C13G	aptazyme ON/OFF ratio	1.16
U7C U8C G9U U10G U11A C13G	aptazyme ON/OFF ratio	1.1
U7C U10G C12A C13U	aptazyme ON/OFF ratio	1.15
U7G U8G U10A U11C C12G	aptazyme ON/OFF ratio	1.25
U7G U8A G9C U10A U11C C13A	aptazyme ON/OFF ratio	1.04
U7G U8A G9C U10C C12A C13U	aptazyme ON/OFF ratio	1.01
U8A G9C U10C C12G C13U	aptazyme ON/OFF ratio	1.05
U7C U8G G9U U10A U11A C13U	aptazyme ON/OFF ratio	1.22
U8G G9C U10G U11G C12G C13A	aptazyme ON/OFF ratio	1.24
U8A G9U U10A C12U C13G	aptazyme ON/OFF ratio	1.18
U7G U8A G9U U10A U11A C13U	aptazyme ON/OFF ratio	1.07
U7G U8A U11A C12U C13A	aptazyme ON/OFF ratio	1.31
U7G U8G G9C U11A C12G	aptazyme ON/OFF ratio	1.17
U8A U11A C12U C13G	aptazyme ON/OFF ratio	1.21
U7G U8C U10C C12A C13A	aptazyme ON/OFF ratio	1.19
U7C U8C U10A U11C C12A C13A	aptazyme ON/OFF ratio	1.13
U7A C13A	aptazyme ON/OFF ratio	1.47
U8G C12G	aptazyme ON/OFF ratio	1.52
U7C U8A U10C U11G C13G	aptazyme ON/OFF ratio	1.1
U7A U8C G9U U10G U11A C12A C13G	aptazyme ON/OFF ratio	1.13
U10C U11A C12U C13G	aptazyme ON/OFF ratio	1.32
U7C U8C G9C U10C U11C C12U C13G	aptazyme ON/OFF ratio	1.08
U7C U11C C12U C13U	aptazyme ON/OFF ratio	1.29
U7A U8G G9C U11G C13U	aptazyme ON/OFF ratio	1.4
G9U C12U C13G	aptazyme ON/OFF ratio	1.3
U7A U8G U10C C12U	aptazyme ON/OFF ratio	1.5
U7G G9A U10A U11C C12G C13U	aptazyme ON/OFF ratio	1.18
U7G U8G U11C C12G C13A	aptazyme ON/OFF ratio	1.33
U7G U8C G9C U10G U11A	aptazyme ON/OFF ratio	1.11
U7A U8A G9C U11G C13G	aptazyme ON/OFF ratio	1.1
U7A U8A G9A U10A U11C C12G C13A	aptazyme ON/OFF ratio	1.11
U8A G9U C13U	aptazyme ON/OFF ratio	1.4
U7C U8G U10A U11G C12G	aptazyme ON/OFF ratio	1.23
U7C U8G U11A C12A C13A	aptazyme ON/OFF ratio	1.09
U8G U10G U11G C12U C13A	aptazyme ON/OFF ratio	1.42
U7A G9A U10A U11G C12A C13U	aptazyme ON/OFF ratio	1.09
